Target sequence: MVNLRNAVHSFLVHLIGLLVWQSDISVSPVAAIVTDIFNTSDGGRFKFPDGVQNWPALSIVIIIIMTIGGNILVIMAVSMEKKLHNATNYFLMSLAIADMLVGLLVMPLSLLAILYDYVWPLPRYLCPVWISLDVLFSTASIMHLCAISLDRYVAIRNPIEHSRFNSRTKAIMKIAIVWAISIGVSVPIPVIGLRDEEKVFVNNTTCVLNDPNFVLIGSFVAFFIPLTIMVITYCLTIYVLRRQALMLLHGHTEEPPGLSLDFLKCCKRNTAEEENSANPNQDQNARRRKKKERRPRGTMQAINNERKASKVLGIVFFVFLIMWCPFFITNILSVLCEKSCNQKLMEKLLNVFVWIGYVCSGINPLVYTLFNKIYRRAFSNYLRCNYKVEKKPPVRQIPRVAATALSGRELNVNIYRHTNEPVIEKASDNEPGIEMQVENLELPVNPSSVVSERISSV
measurement-name: pKi
# pKi: negative log10 of molar concentration; output just the value

Recorded result, `CN1CCc2c(sc3ncn(CCN4CCN(c5ccnc6ccccc56)CC4)c(=O)c23)C1` , pKi: 5.26
